- Tested on: pigweed (Amaranthus retroflexus)
- Assay notes: Test A preemergence
- Type: in vivo
- Run parameters: Amaranthus retroflexus, pre-emergence, 240 h, 500 g ai/ha, preemergence; 0 to 100 scale where 0 is no effect and 100 is complete control; read-out: Pigweed plant response rating
- Text: […]
Experimental endpoint: pest or weed control at 500 g/ha (%)
# output: bare number, implied unit %

**Q:** Please look up its pest or weed control at 500 g/ha: Cc1c(F)cccc1NC(=O)[C@H]1C(=O)N(C)C[C@@H]1c1ccc2c(c1)OC(F)(F)O2 [Compound 1252]
**A:** 90

**Q:** Please look up its pest or weed control at 500 g/ha: O=C1NCC[C@H](c2cccc(Cl)c2)[C@H]1C(=O)Nc1ccccc1F [Compound 1159]
**A:** 0

**Q:** Please look up its pest or weed control at 500 g/ha: Cc1ccc([C@H]2CNC(=O)[C@@H]2C(=O)Nc2c(F)cccc2F)cc1C [Compound 1247]
**A:** 0

**Q:** Please look up its pest or weed control at 500 g/ha: CCc1ccc([C@H]2CNC(=O)[C@@H]2C(=O)Nc2ccccc2SC)cc1 [Compound 1178]
**A:** 50

**Q:** Please look up its pest or weed control at 500 g/ha: CN1C[C@H](c2ccc(F)c(C#N)c2)[C@@H](C(=O)Nc2ccccc2F)C1=O [Compound 1254]
**A:** 70

**Q:** Please look up its pest or weed control at 500 g/ha: COc1cc(C(F)(F)F)ccc1[C@H]1CN(C)C(=O)[C@@H]1C(=O)Nc1cccc(F)c1C [Compound 1205]
**A:** 30

**Q:** Please look up its pest or weed control at 500 g/ha: CN1CC(c2cccc(/C=C/Cl)c2)C(C(=O)Nc2ccccc2F)C1=O (centres unmarked) [Compound 1129]
**A:** 0

**Q:** Please look up its pest or weed control at 500 g/ha: Cc1c(F)cccc1NC(=O)[C@H]1C(=O)N(C)C[C@@H]1c1ccc(OC(F)F)cc1 [Compound 1213]
**A:** 80

###

- Tested on: barnyardgrass (Echinochloa crus-galli)
- Assay notes: Test A postemergence
- Type: in vivo
- Run parameters: Echinochloa crus-galli, post-emergence, 240 h, 125 g ai/ha, Postemergence; visual injury after approximately 10 d; 0 to 100 scale where 0 is no effect and 100 is complete control; read-out: Plant response rating, Barnyardgrass
Experimental endpoint: pest or weed control at 125 g/ha (%)
# output: bare number, implied unit %

**Q:** Please look up its pest or weed control at 125 g/ha: CCOc1cccc([C@H]2CNC(=O)[C@@H]2C(=O)Nc2ccccc2F)c1 [Compound 949]
**A:** 90

**Q:** Please look up its pest or weed control at 125 g/ha: CN1CC[C@H](c2cccc(C(F)(F)F)c2)[C@@H](C(=O)Nc2ccccc2S(C)(=O)=O)C1=O [Compound 920]
**A:** 40

**Q:** Please look up its pest or weed control at 125 g/ha: Cc1cc([C@H]2CN(C)C(=O)[C@@H]2C(=O)Nc2ccccc2F)cc(C)c1Br [Compound 1023]
**A:** 90

**Q:** Please look up its pest or weed control at 125 g/ha: Cc1cccc(NC(=O)[C@H]2C(=O)N(C)C[C@@H]2c2ccc(C(F)(F)F)cc2)c1F [Compound 939]
**A:** 80

**Q:** Please look up its pest or weed control at 125 g/ha: CC(=O)Oc1ccc(F)c(NC(=O)[C@H]2C(=O)N(C)C[C@@H]2c2cc(F)cc(F)c2)c1 [Compound 1019]
**A:** 0

###

I'd appreciate it if you could supply Plant response rating, Foxtail, Giant values for the items below.
- Test system: giant foxtail (Setaria faberii)
- Assay notes: Test A preemergence
- Type: in vivo
- Run parameters: 125 g ai/ha, preemergence; 0 to 100 scale (0 no effect, 100 complete control)
Answer using only a numeral; do not append any unit.

**Q:** Please look up its Plant response rating, Foxtail, Giant: Cc1cccc(C2CNC(=O)C2C(=O)Nc2cccc(F)c2F)c1 (racemic) [Compound 373]
**A:** 80

**Q:** Please look up its Plant response rating, Foxtail, Giant: Cc1ccc(C2CNC(=O)C2C(=O)Nc2ccccc2F)cc1F (racemic) [Compound 368]
**A:** 90

**Q:** Please look up its Plant response rating, Foxtail, Giant: Cc1ccc(C2CNC(=O)C2C(=O)Nc2cccc(F)c2F)cc1F (racemic) [Compound 369]
**A:** 90

**Q:** Please look up its Plant response rating, Foxtail, Giant: CN1CC(c2ccc(C(F)(F)F)cc2F)C(C(=O)Nc2ccccc2S(C)(=O)=O)C1=O (centres unmarked) [Compound 473]
**A:** 90

**Q:** Please look up its Plant response rating, Foxtail, Giant: Cc1cc(C2CN(C)C(=O)C2C(=O)Nc2ccc(F)cc2F)ccc1F (centres unmarked) [Compound 404]
**A:** 90

###

- Test system: barnyardgrass (Echinochloa crus-galli)
- Assay notes: Test A postemergence
- Assay type: in vivo
- Run parameters: Postemergence, 125 g ai/ha; visual injury, 0 to 100 scale (0 no effect, 100 complete control), approx. 10 d
Experimental endpoint: Plant response rating, Barnyardgrass
Answer using only a numeral; do not append any unit.

**Q:** Please look up its Plant response rating, Barnyardgrass: Cc1ccc(C2CNC(=O)C2C(=O)Nc2ccc(F)c(F)c2F)cc1F (racemic)
**A:** 80

**Q:** Please look up its Plant response rating, Barnyardgrass: O=C1NCC(c2cccc(OCC(F)F)c2)C1C(=O)Nc1ccc(F)cc1F (stereo not drawn)
**A:** 30

**Q:** Please look up its Plant response rating, Barnyardgrass: O=C1NCC(c2cccc(OCC(F)F)c2)C1C(=O)Nc1ccccc1Cl (stereo not drawn)
**A:** 50

**Q:** Please look up its Plant response rating, Barnyardgrass: Cc1ccc(C2CNC(=O)C2C(=O)Nc2ccccc2F)cc1F (racemic)
**A:** 90

**Q:** Please look up its Plant response rating, Barnyardgrass: CC(C)Oc1cccc(C2CNC(=O)C2C(=O)Nc2ccc(F)cc2F)c1 (racemic)
**A:** 90

**Q:** Please look up its Plant response rating, Barnyardgrass: CN(C)c1cccc(C2CNC(=O)C2C(=O)Nc2ccccc2F)c1 (stereo not drawn)
**A:** 0

###

- Tested on: blackgrass (Alopecurus myosuroides)
- Assay notes: Test A postemergence
- Assay type: in vivo
- Run parameters: 500 g ai/ha, postemergence; visual injury, 0 to 100 scale (0 no effect, 100 complete control), approx. 10 d
# note: exactly 60 is not below, so it is Condition not met; use Condition met for Plant response rating, Blackgrass strictly under it

**Q:** Lab note: confirm whether the reported Plant response rating, Blackgrass for this compound is below 60, equality not counting. compound: CC(=O)c1ccccc1NC(=O)C1C(=O)NCC1c1cccc(C(F)(F)F)c1 (racemic) [Compound 706]
**A:** Condition met

**Q:** Lab note: confirm whether the reported Plant response rating, Blackgrass for this compound is below 60, equality not counting. compound: Cc1ccc(C2CN(C)C(=O)C2C(=O)Nc2cccc(F)c2F)cc1 (stereo not shown) [Compound 662]
**A:** Condition not met

**Q:** Lab note: confirm whether the reported Plant response rating, Blackgrass for this compound is below 60, equality not counting. compound: O=C1NCC(c2cccc(OC(F)(F)C(F)F)c2)C1C(=O)Nc1ccccc1F (racemic) [Compound 695]
**A:** Condition met

**Q:** Lab note: confirm whether the reported Plant response rating, Blackgrass for this compound is below 60, equality not counting. compound: Cc1cccc(C2CN(C)C(=O)C2C(=O)Nc2cccc(F)c2F)c1 (stereo not shown) [Compound 667]
**A:** Condition not met

###

I'd appreciate it if you could supply Plant response rating (scale of 0 to 100), Rice values for the items below.
- Test system: rice (Oryza sativa)
- Assay notes: Test C flooded paddy test
- Type: in vivo
- Run parameters: Flood, 62 g ai/ha; 0 is no effect, 100 is complete control

**Q:** Param readout = Plant response rating (scale of 0 to 100), Rice; param system = rice (Oryza sativa); param query = "CN1C[C@H](c2ccc(F)c(F)c2)[C@@H](C(=O)Nc2cccc(F)c2F)C1=O" ; response: value
**A:** 0

**Q:** Param readout = Plant response rating (scale of 0 to 100), Rice; param system = rice (Oryza sativa); param query = CN1CC(c2cccc(OC(F)F)c2)C(C(=O)Nc2ccccc2F)C1=O (stereo not drawn) ; response: value
**A:** 0

**Q:** Param readout = Plant response rating (scale of 0 to 100), Rice; param system = rice (Oryza sativa); param query = C=CCN1CC(c2cccc(C(F)(F)F)c2)C(C(=O)Nc2cccc(F)c2F)C1=O (stereo not drawn) ; response: value
**A:** 0

**Q:** Param readout = Plant response rating (scale of 0 to 100), Rice; param system = rice (Oryza sativa); param query = CC(C)Oc1cccc(C2CN(C)C(=O)C2C(=O)Nc2ccccc2F)c1 (stereo not drawn) ; response: value
**A:** 0

**Q:** Param readout = Plant response rating (scale of 0 to 100), Rice; param system = rice (Oryza sativa); param query = CN1CC(c2cccc(C(F)(F)F)c2)C(C(=O)Nc2ccccc2S(C)(=O)=O)C1=O (stereo not drawn) ; response: value
**A:** 15

**Q:** Param readout = Plant response rating (scale of 0 to 100), Rice; param system = rice (Oryza sativa); param query = CN1CC(c2ccc(F)c(C(F)(F)F)c2)C(C(=O)Nc2cccc(F)c2F)C1=O (stereo not drawn) ; response: value
**A:** 0
